- Assayed System: T1, human GIP receptor (human, UniProt P48546 22-466)
- T1 sequence (looked up): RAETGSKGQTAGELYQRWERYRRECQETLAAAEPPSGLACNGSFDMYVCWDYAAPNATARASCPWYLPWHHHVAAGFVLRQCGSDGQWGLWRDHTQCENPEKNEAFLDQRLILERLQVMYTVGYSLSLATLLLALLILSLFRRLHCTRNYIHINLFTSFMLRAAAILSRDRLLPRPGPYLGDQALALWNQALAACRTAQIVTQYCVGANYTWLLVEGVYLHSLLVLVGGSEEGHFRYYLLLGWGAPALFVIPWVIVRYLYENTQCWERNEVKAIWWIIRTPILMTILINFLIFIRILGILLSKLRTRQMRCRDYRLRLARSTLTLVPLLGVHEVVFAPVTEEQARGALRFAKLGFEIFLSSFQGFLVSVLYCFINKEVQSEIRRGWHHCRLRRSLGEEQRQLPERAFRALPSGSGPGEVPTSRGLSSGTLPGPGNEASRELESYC
- Assay Notes: cell-based or functional assay
*1 amine or outer side, *2 acyl side, *3 side chain or, on linkers, in order; H or OH if unused. Where no end group is shown, it is not given here. Side-chain parts run from the residue outwards. [ ]: non-standard residue; d: D form. The star is where a group is joined. C20 diacid = O=C(O)CCCCCCCCCCCCCCCCCCC(=O)*; C18 diacid = O=C(O)CCCCCCCCCCCCCCCCC(=O)*; γGlu = O=C(O)[C@H](CCC(=O)[*:2])N[*:1]; Trx = NC[C@H]1CC[C@H](C(=O)O)CC1; Nle = CCCC[C@H](N)C(=O)O; AEEA = NCCOCCOCC(=O)O; Aib = CC(C)(N)C(=O)O
Could you please mark class 1 for values of EC50, hGIP-R CRE Luc, 0.2% HSA below 60 pM and class 0 for values at or above it?

{"columns": ["Binder", "Label Value"],
 "data": [
  ["Ac-[dY]AEGTFISDYSIADDKIRQEDFVK([AEEA-AEEA-γGlu-C18 diacid])WLLAQKG", "class 0"],
  ["Y[Aib]EGTFISDYSIA[Nle]DKIHQQDFVK([γGlu-γGlu-γGlu-Trx-C20 diacid])WLLAQKP-NH2", "class 0"],
  ["Y[Aib]EGTFISDYSIALDKIHQQDFVK([AEEA-AEEA-γGlu-C18 diacid])WLLAQKGKKNDWKHNITQ", "class 1"],
  ["Ac-[dY]AEGTFISDYSIA[Nle]DKIRQQDFVK([γGlu-γGlu-γGlu-C18 diacid])WLLAQKG", "class 1"],
  ["Ac-[dY]AEGTFISDYSIA[Nle]DKIRQQDFVK([γGlu-γGlu-γGlu-Trx-C20 diacid])WLLAQKG", "class 0"]
]}
